Tested on: HSP17.6C-C1 of Arabidopsis thaliana
assaySummary: HSP expression test (HSP17.6C-C1 upstream region linked to GUS, 4-MU production)
Type: in vivo
Set-up: key: 4-MU per plant divided by 4-MU of 50 μM geldanamycin positive control
testConditions: 100 μM; soaked 6 hours at 22° C.; positive control 50 μM geldanamycin
Method: First, a construct linked to β-glucuronidase (GUS) gene was introduced to 1 kb upstream of HSP17.6C-C1 of Arabidopsis thaliana (the family Brassicaceae) to prepare a mutant. […] Next, two individuals of 7-day-old Arabidopsis thaliana mutants grown in a ⅕ MS medium were soaked in 300 μL of the test solution of each example or the positive control at 22° C. for 6 hours. […] The calculated value of 4-MU was divided by the value of 4-MU of the positive control to calculate a ratio vs. positive control. […]
Listing of entries alongside the reported Ratio of 4-MU amount vs. positive control.
Just the number, please, no unit after it.

Known Ratio of 4-MU amount vs. positive control results, listed for orientation:
compound="O=C1C=CC(=O)c2c(O)cccc21 [Example 3, 5-Hydroxy-1,4-naphthoquinone]" observedresult=0.59
compound="CC(C)=CC[C@H](O)C1=CC(=O)c2c(O)ccc(O)c2C1=O [Example 20, Alkannin]" observedresult=0.62

Now take the following compound into account.
Qu. Suppose we examine the compound CC(C)=CC[C@@H](OC(=O)C(C)C)C1=CC(=O)c2c(O)ccc(O)c2C1=O [Example 15, Isobutyrylshikonin] ; what Ratio of 4-MU amount vs. positive control value has been reported?
Ans. 1.19

Cited source: patent US11638425B2
